// data source = patent US20240376170A1

Molecular target: T1, IL-2 receptor βγ complex on human T cells (human, UniProt P14784 27-551; P31785 23-369)
T1 sequence (looked up) 1: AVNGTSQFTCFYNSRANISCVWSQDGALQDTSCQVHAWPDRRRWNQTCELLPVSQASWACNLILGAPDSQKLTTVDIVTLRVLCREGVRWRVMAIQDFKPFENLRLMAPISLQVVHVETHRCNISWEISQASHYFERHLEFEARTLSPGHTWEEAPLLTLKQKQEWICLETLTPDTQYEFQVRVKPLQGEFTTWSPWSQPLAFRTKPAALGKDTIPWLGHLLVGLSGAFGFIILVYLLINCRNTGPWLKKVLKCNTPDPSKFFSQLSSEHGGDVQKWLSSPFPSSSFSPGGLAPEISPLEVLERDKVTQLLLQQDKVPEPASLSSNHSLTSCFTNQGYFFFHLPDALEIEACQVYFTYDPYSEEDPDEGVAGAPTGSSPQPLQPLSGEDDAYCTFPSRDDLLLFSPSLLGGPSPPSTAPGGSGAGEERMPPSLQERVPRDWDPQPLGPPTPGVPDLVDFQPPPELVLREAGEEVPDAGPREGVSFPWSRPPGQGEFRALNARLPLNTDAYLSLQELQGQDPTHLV
T1 sequence (looked up) 2: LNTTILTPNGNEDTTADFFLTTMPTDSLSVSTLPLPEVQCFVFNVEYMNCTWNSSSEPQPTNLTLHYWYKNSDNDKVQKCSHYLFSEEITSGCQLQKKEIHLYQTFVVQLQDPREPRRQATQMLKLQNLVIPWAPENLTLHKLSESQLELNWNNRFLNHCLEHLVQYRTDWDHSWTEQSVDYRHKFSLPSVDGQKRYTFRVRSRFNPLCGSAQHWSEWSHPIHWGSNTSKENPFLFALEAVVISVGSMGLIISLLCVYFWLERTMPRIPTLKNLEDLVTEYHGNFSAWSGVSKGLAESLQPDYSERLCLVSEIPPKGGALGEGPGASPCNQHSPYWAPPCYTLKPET
Test: cell-based or functional assay
Primed or numbered codes have the meaning given here. [ ]: non-standard residue; d: D form. Ygp(3) = O-(PEG8-amino)-tyrosine; Yn3(3) = O-(PEG9-azido)-tyrosine; hSer = N[C@@H](CCO)C(=O)O; Nle = CCCC[C@H](N)C(=O)O
Catalogue of binders with associated Average EC50, pSTAT5 Assay (T cells), intact molecule
Give a bare numeral; the unit nM is implied.

1. CMP-146 (ligand, also: further groups not given here) APTSSSTKKTKLQLEHLLLDLQ[Nle]ILNGINNYKNPKLTR[Nle]L[hSer][Yn3(3)]KF[Ygp(3)][Nle]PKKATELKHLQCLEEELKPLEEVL[hSer]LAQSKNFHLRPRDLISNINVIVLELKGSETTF[hSer]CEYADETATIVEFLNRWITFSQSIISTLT    4.29

# context switch: different binder, same Average EC50, pSTAT5 Assay (T cells), intact molecule
QUERY: // lookup Average EC50, pSTAT5 Assay (T cells), intact molecule for CMP-149 (ligand, also: further groups not given here) APTSSSTKKTQLQLEHLLKDLQ[Nle]ILNGINNYKNPKLTR[Nle]L[hSer][Yn3(3)]KF[Ygp(3)][Nle]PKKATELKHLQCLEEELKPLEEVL[hSer]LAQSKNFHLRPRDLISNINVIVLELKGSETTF[hSer]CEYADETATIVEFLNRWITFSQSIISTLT
RESULT: 46.7
